Give measured TGI for each item. Keep answers brief.
system: A549 NSCLC; assay: NCI tumour cell line growth inhibition, 48 h

                                   molecule  assay_result
0     O=C1[C@@H](O)[C@@H]2CCCC[C@@]23CCCN13      > 100 µM
1  COC(=O)Cn1c(=O)oc2nc(-c3ccccc3)cc(C(F)(F)F)c21      > 100 µM

Quick one: give me TGI for each item below, same order please.
1. CCCCCCCCCCCCCCCCCC(=O)OCC1OC(OC)C(NC(=O)N(CCCl)N=O)C(O)C1O (stereo not given)
2. CCOC(=O)C12CC(C)=C(C)CC1CCCc1ccccc12 (stereo not given)
3. O=C1C(c2ccccc2)=C(c2ccccc2)C(c2ccc(Sc3ccc(C4=C(c5ccccc5)C(=O)C(c5ccccc5)=C4c4ccccc4)cc3)cc2)=C1c1ccccc1

Response:
1: 52.1 µM; 2: > 100 µM; 3: > 100 µM

====

Give measured GI50 for each item. Keep answers brief.
tested on: UACC-62 melanoma; test: NCI tumour cell line growth inhibition, 48 h

Example cases with answers are listed next.
>>> print(df.to_string())
                                 smiles_str  assay_result
0  O=C1NC(=NCCc2ccccn2)S/C1=C\c1ccc2ncccc2c1       9.73 µM
1  C=CC(=O)Nc1cccc(Oc2nc(Nc3ccc(N4CCN(C)CC4)cc3OC)ncc2Cl)c1       1.87 µM
2  C=CC(=O)N1CC[C@H](n2nc(C#Cc3cc(OC)cc(OC)c3)c3c(N)ncnc32)C1       6.95 µM
3  Cc1sc2c(c1C)C(c1ccc(Cl)cc1)=N[C@@H](CC(=O)NCCCN1CCN(C)CC1)c1nnc(C)n1-2      0.214 µM

Quick one: give me GI50 for each item below, same order please.
1. NC(=O)c1cc(Br)ccc1NC(=O)/C=C/c1ccccc1
2. CC(C)(C)c1cc(-c2nc3ccc(N4CCN(CCO)CC4)cc3[nH]2)cc(C(C)(C)C)c1O

Response:
1: 1.24 µM; 2: 1.73 µM

====

Give measured TGI for each item. Keep answers brief.
test system: PC-3 prostate; test: NCI tumour cell line growth inhibition, 48 h

Example cases with answers are listed next.
In [3]: df
Out[3]:
                                   compound  assay_readout  assay_result
0  O=C(CN=C(CN(c1ccccc1)c1ccccc1)Oc1ccc(Cl)cc1Cl)n1ccnc1            TGI      > 100 µM
1                     CCOC(=O)N/N=C(\CC)OCC            TGI      > 100 µM
2  CN(C)Cc1c(C(=O)NCCOc2ccc(C(=O)NO)cc2)oc2ccccc12            TGI       5.06 µM
3     C/C(=C\C(=N\NC(=N)N)c1ccccc1)c1ccccc1            TGI       3.21 µM

Quick one: give me TGI for each item below, same order please.
1. COC(=O)CNc1nc(N(C)O)nc(N(C)O)n1
2. N#Cc1c(N/N=C\c2ccc(Cl)cc2)nc(N)nc1N1CCOCC1
3. CC(=O)n1[nH]c(=O)n(-c2ccccc2)c1=O
4. COc1ccc(-c2cn(-c3cc(OC)c(OC)c(OC)c3)c(=O)[nH]2)cc1OC
5. Cc1cn(Cc2cn(CC3OC(n4cc(C)c(=O)[nH]c4=O)CC3O)nn2)c(=O)[nH]c1=O (stereo unspecified)

Response:
> 100 µM
> 100 µM
> 100 µM
> 100 µM
> 100 µM

Quick one: give me TGI for each item below, same order please.
1. CC(C(=O)n1ccnc1)N1c2ccccc2Sc2ccccc21 (stereo unspecified)
2. N#CC1=C(N)Oc2c(sc3c(Br)cccc23)C1c1ccc(Cl)cc1 (stereo unspecified)

Response:
1: > 100 µM; 2: 5.55 µM

====

system: 786-0 renal; assay: NCI tumour cell line growth inhibition, 48 h
Give measured GI50 for each item. Keep answers brief.

                                   compound  assay_result
0  COc1ccc(Cn2cc3c(c2-c2cc(OC)c(OC)c(OC)c2)CCc2c(CO)noc2-3)cc1      0.493 µM
1  C=CC(=O)N1CC[C@H](n2nc(C#Cc3cc(OC)cc(OC)c3)c3c(N)ncnc32)C1       2.24 µM

Quick one: give me GI50 for each item below, same order please.
1. CN(C)CCNC(=O)c1ccc2oc3cc4ccccc4c(=O)n3c2c1
2. C=CC(=O)Nc1cccc(Oc2nc(Nc3ccc(N4CCN(C)CC4)cc3OC)ncc2Cl)c1
3. O=C(O)c1cn(C2CC2)c2cc(N3CCN(Cc4c(O)ccc5ccccc45)CC3)c(F)cc2c1=O
4. O=C1NC(=NCCc2ccccn2)S/C1=C\c1ccc2ncccc2c1
5. CCNCCNc1cc(-c2ccc(C(F)(F)F)cc2)c(C#N)c2nc3cc(Cl)c(Cl)cc3n12
6. O=C1CC(N2C(=O)/C(=C/C(Cl)=C\c3ccc([N+](=O)[O-])cc3)SC2=S)C(=O)N1c1ccc(O)cc1 (centres undefined)
7. C/C=C(\C)C(=O)O[C@H]1C=CC(=O)O[C@H]1COC(=O)[C@H](C)O

Response:
1: 71.6 µM; 2: 1.47 µM; 3: 2.58 µM; 4: 16.8 µM; 5: 1.53 µM; 6: 1.23 µM; 7: 6.59 µM

====

tested on: NCI-H522 lung; experiment: NCI tumour cell line growth inhibition, 48 h
Give measured log10 of TGI for each item. Keep answers brief.
// do not treat as linear: log10 of TGI, unit µM

Quick one: give me log10 of TGI for each item below, same order please.
1. Cc1ccc2c3c1[C@@H]1O[C@@H]1c1cccc(c1-3)[C@@H]1O[C@H]21
2. COc1cc(CCNC(=O)OC(C)(C)C)c2c(c1OC)SSSSS2
3. CCNc1nnc(-c2ccccc2Nc2ccccc2-c2nnc(NCC)s2)s1
4. C/C=C(\C)C(=O)O[C@H]1C=CC(=O)O[C@H]1COC(=O)[C@H](C)O
5. C=CC(=O)Nc1cccc(Oc2nc(Nc3ccc(N4CCN(C)CC4)cc3OC)ncc2Cl)c1
6. Oc1ccccc1/C=N\NC(=S)N/N=C/c1ccccc1O

Response:
1. 1.47
2. 0.62
3. 1.43
4. 1.37
5. 0.24
6. 1.56

Quick one: give me log10 of TGI for each item below, same order please.
1. CCN(CCO)CCNc1ccc(C)c2sc3ccccc3c(=O)c12
2. COc1cc(/C=C2\N=C(c3ccccc3)N(c3nc4ccc(Sc5ccccc5)cc4[nH]3)C2=O)cc(OC)c1OC
3. CN(C)CCOc1ccccc1NC1=C(Cl)C(=O)C(Nc2ccccc2OCCN(C)C)=C(Cl)C1=O
4. CCOC(=O)CN(c1ccccc1)c1nc(=[N+](C)C)ss1

Response:
1. 1.06
2. 1.68
3. 0.06
4. -0.31

====

test system: T-47D breast; assay: NCI tumour cell line growth inhibition, 48 h
# label = fulfilled if TGI >= 50 µM else not fulfilled

>>> print(df.to_string())
                                   molecule  class_assignment
0  O=C1c2c(Cl)c(Cl)c(Cl)c(Cl)c2C(=O)C2(Cl)CC=CCC12Cl (configuration not stated)     not fulfilled

Request: Is it the case that `CN(C)CCNC(=O)c1ccc2oc3cc4ccccc4c(=O)n3c2c1` has TGI reaching or exceeding 50 µM?
Response: fulfilled

Request: Is it the case that `CCOC(=O)C1(N)CC1` has TGI reaching or exceeding 50 µM?
Response: fulfilled

Request: Is it the case that `COC(=O)/N=[N+](\[O-])C(c1ccccc1)c1ccccc1` has TGI reaching or exceeding 50 µM?
Response: fulfilled

Request: Is it the case that `CN(C)Cc1c(C(=O)NCCOc2ccc(C(=O)NO)cc2)oc2ccccc12` has TGI reaching or exceeding 50 µM?
Response: not fulfilled

====

system: UACC-257 melanoma; experiment: NCI tumour cell line growth inhibition, 48 h; in the data active = GI50 below about 0.43 µM; inactive = the rest
Allowed answers: 1 = active, 0 = inactive

Sample answers from the record:
                                   molecule    measured_target  class_assignment
0  Cc1ccc(OCCOCCOCCOCCOCCOc2ccc(C)n(O)c2=S)c(=S)n1O  UACC-257 melanoma                 1
1  Cc1[nH]nc2ncc(C(=O)N3CCC[C@H]3c3ccc(Cl)cc3)cc12  UACC-257 melanoma                 0
2  Cc1ccccc1C(C(=O)NC1CCCCC1)N(C(=O)CNc1ccc(C#N)cc1)c1cccc(F)c1 (stereo unspecified)  UACC-257 melanoma                 0

Let's switch to this molecule now.
Request: Query: recorded result category for `C=CCOC(=O)Nc1cccn([C@H](CC(C)C)C(=O)NCCC(C)C)c1=O` in this test
Response: 0
